assay.details: S16 Schwann cell PMP22 intronic element firefly luciferase assay (AID 624032); also: nearly all actives have a fitted effect of over 30% in size
assay.context: S16 rat Schwann cells, PMP22 element FLuc, 24 h; series mostly up to 57.5 µM
Description: Charcot-Marie-Tooth-Association [CMTA] National Center for Advancing Translational Sciences [NCATS] […] The FLuc-expressing S16 cells were seeded in white solid 1536-well plates at between 500-750 cells/4uL in DMEM medium containing 10% FBS, w/o phenol red. […] Luminescence was measured on a ViewLux plate reader (Perkin Elmer). The % activity was determined by normalizing to the average readings of PTC124 (a positive control) - treated cells relative to DMSO-treated cells (0% Activity). […]
Records with an inconclusive call do not appear. Calls of active or inactive are those of the source. Calls follow the shape of the dose curve; as a rule, active = well fitted inhibition curve with a large enough effect; inconclusive = small, poorly fitted or top-dose-only effect; inactive = no such curve, though single readings can be large or run the other way. Where a SMILES comes first, the peptide text is derived from it. [ ]: non-standard residue; d: D form. pGlu = O=C1CC[C@@H](C(=O)O)N1; Thz = O=C(O)[C@@H]1CSCN1
Assign a class; possible classes are yes for active, no for inactive

Problem: Assay result, entry COC(=O)C1=C(C)NC(C)=C(C(=O)OCC(C)C)C1c1ccccc1[N+](=O)[O-] (stereo not drawn) — outcome?
Result: yes

Problem: What about this compound? O=C(O)/C=C/C(O)c1ccc(Cl)cc1 (stereo not drawn)
Result: no

Problem: Same thing, different compound: CN1[C@@H](CC(=O)c2ccccc2)CCC[C@H]1C[C@H](O)c1ccccc1
Result: no

Problem: Okay, and CCCCC[C@H](O)/C=C/[C@@H]1[C@@H](C/C=C\CCCC(=O)O)[C@@H](O)C[C@H]1O ?
Result: no

Problem: Moving on to CC1(C)C[C@@H]1C(=O)N/C(=C\CCCCSC[C@H](N)C(=O)O)C(=O)O
Result: no

Problem: Try the compound C=C(Nc1ccc(OCC)cc1)Nc1ccc(OCC)cc1
Result: no

Problem: Query Cc1cc(O)c2ccccc2c1O next
Result: yes

Problem: Try the compound Nc1c(CC(=O)O)cccc1C(=O)c1ccc(Br)cc1
Result: no

Problem: What about COc1cc(/C=C/C(=O)N2CCN(CC(=O)N3CCCC3)CC2)cc(OC)c1OC ?
Result: no

Problem: Could you do the same for CCOC(=O)c1ccccc1O , please?
Result: no

Problem: // repeat for O=C(O)[C@H](O)[C@@H](O)[C@H](O)[C@H](O)CO and report
Result: no

Problem: One more compound: O=C(O)c1cc(O)c(O)c(O)c1
Result: no

Problem: Same lookup for CCCCCCCCCCCCCCCCCC(=O)O , please.
Result: no

Problem: Also O=C1CC[C@@H](C(=O)N2CSC[C@H]2C(=O)O)N1 ([pGlu]-[Thz]-OH) ?
Result: no

Problem: Nc1ccc(O)c(C(=O)O)c1 ?
Result: no

Problem: Note, next up: Clc1ccccc1-c1nc(-c2ccncc2)no1
Result: no

Problem: // same read-out, input: Cc1ccc(C(=O)c2ccc(CC(=O)O)n2C)cc1
Result: no

Problem: Can you handle C=CCCCCCCCCC(=O)O next?
Result: no

Problem: Try the compound CN(C)c1ccc(C(=C2C=CC(=[N+](C)C)C=C2)c2ccccc2)cc1
Result: no

Problem: Entry O=C(O)[C@H](CC(=O)N1C[C@H]2CCCC[C@H]2C1)Cc1ccccc1 please
Result: no

Problem: Same question for CCCCCCCCCCCCCCCC(=O)OC(C)C please.
Result: no

Problem: Same for C=CC(N)CCC(=O)O (stereo not drawn)
Result: no

Problem: Thanks! And O=C(OCc1ccccc1)c1ccccc1 ?
Result: no

Source listed as PubChem BioAssay (NCATS).
